The following molecules are shown together with reported Bliss excess values.
system: NCI-H1666 (Lung Adenocarcinoma); assay: Bliss excess, mean over the matrix (fraction); higher = more synergy
Hey, just send me the number, nothing else.

[
  {
    "MOLECULE": "C[C@@H](c1ccc2nccn2c1)n1nnc2ncc(-c3cnn(C)c3)nc21 [Savolitinib] + CC1(C)CCC(CN2CCN(c3ccc(C(=O)NS(=O)(=O)c4ccc(NCC5CCOCC5)c([N+](=O)[O-])c4)c(Oc4cnc5[nH]ccc5c4)c3)CC2)=C(c2ccc(Cl)cc2)C1 [Venetoclax] (first compound max 1 µM, 7x7, partner max 1 µM)",
    "Bliss excess": -0.0595
  }
]

Let's switch to this molecule now.
Name the reported Bliss excess value associated with the molecule CN(CCO)CC[C@H](CSc1ccccc1)Nc1ccc(S(=O)(=O)NC(=O)c2ccc(N3CCC([C@@H](O)c4ccccc4-c4ccc(Cl)cc4)CC3)cc2)cc1S(=O)(=O)C(F)(F)F [AZD4320] + C1CN(CCC1(C(=O)N[C@@H](CCO)C2=CC=C(C=C2)Cl)N)C3=NC=NC4=C3C=CN4 [Capivasertib] (first compound max 1 µM, 7x7, partner max 3 µM)
-0.0491

----------
system: NY (Osteosarcoma); assay: combination Emax (second highest fraction inhibited in the dose matrix, 72 h); higher = more inhibition; extreme values may be limits of the assay
MEASUREMENT NAME: combination Emax
Answer using only a numeral; do not append any unit.

[
  {
    "COMPOUND": "CN(CCO)CC[C@H](CSc1ccccc1)Nc1ccc(S(=O)(=O)NC(=O)c2ccc(N3CCC([C@@H](O)c4ccccc4-c4ccc(Cl)cc4)CC3)cc2)cc1S(=O)(=O)C(F)(F)F [AZD4320] + CCN(CCO)CCCOc1ccc2c(Nc3cc(CC(=O)Nc4cccc(F)c4)[nH]n3)ncnc2c1 [AZD2811] (first compound max 1 µM, 7x7, partner max 1 µM)",
    "RECORDED VALUE": 0.121
  }
]

Note: attention shifts to another entry.
Requested field: combination Emax. Item: C=CCn1c(=O)c2cnc(Nc3ccc(N4CCN(C)CC4)cc3)nc2n1-c1cccc(C(C)(C)O)n1 [AZD1775] + C[C@@H]1COCCN1C2=NC(=NC(=C2)C3(CC3)[S@](=N)(=O)C)C4=C5C=CNC5=NC=C4 [AZD6738] (first compound max 1 µM, partner max 10 µM)
0.665

----------
test system: NCI-H1666 (Lung Adenocarcinoma); assay: combination Emax (second highest fraction inhibited in the dose matrix, 72 h); higher = more inhibition; extreme values may be limits of the assay
The following compounds are listed with their measured combination Emax values.
API note: the answer field is a bare number with no unit suffix.

[
  {
    "COMPOUND": "C[C@@H](Oc1cc(-c2cnn(C3CCNCC3)c2)cnc1N)c1c(Cl)ccc(F)c1Cl [Crizotinib] + Cn1cnc2c(F)c(Nc3ccc(Br)cc3Cl)c(C(=O)NOCCO)cc21 [Selumetinib] (first compound max 10 µM, 7x7, partner max 10 µM)",
    "ASSAYED SYSTEM": "NCI-H1666 (Lung Adenocarcinoma)",
    "combination Emax": 0.503
  },
  {
    "COMPOUND": "NC1(C(=O)N[C@@H](CCO)c2ccc(Cl)cc2)CCN(c2ncnc3[nH]ccc23)CC1 [Capivasertib] + Cn1cnc2c(F)c(Nc3ccc(Br)cc3Cl)c(C(=O)NOCCO)cc21 [Selumetinib] (first compound max 10 µM, 7x7, partner max 10 µM)",
    "ASSAYED SYSTEM": "NCI-H1666 (Lung Adenocarcinoma)",
    "combination Emax": 0.623
  },
  {
    "COMPOUND": "Cn1cnc2c(F)c(Nc3ccc(Br)cc3Cl)c(C(=O)NOCCO)cc21 [Selumetinib] + CC(C)n1c(=O)n(C)c2cnc3cc(F)c(-c4ccc(OCCCN5CCCCC5)nc4)cc3c21 [AZD1390] (first compound max 10 µM, 7x7, partner max 0.3 µM)",
    "ASSAYED SYSTEM": "NCI-H1666 (Lung Adenocarcinoma)",
    "combination Emax": 0.529
  }
]

Test system NCI-H1666 (Lung Adenocarcinoma); read-out combination Emax; what value for CS(=O)(=O)CCNCc1ccc(-c2ccc3ncnc(Nc4ccc(OCc5cccc(F)c5)c(Cl)c4)c3c2)o1 [Lapatinib] + NC1(c2ccc(-c3nc4ccn5c(=O)[nH]nc5c4cc3-c3ccccc3)cc2)CCC1 [MK-2206] (first compound max 10 µM, 7x7, partner max 10 µM) ?
0.898
